Data origin, for the record: patent US6991908B1

Target: rat SLC-1 (Rattus norvegicus, UniProt P97639)
Sequence (P97639 whole entry): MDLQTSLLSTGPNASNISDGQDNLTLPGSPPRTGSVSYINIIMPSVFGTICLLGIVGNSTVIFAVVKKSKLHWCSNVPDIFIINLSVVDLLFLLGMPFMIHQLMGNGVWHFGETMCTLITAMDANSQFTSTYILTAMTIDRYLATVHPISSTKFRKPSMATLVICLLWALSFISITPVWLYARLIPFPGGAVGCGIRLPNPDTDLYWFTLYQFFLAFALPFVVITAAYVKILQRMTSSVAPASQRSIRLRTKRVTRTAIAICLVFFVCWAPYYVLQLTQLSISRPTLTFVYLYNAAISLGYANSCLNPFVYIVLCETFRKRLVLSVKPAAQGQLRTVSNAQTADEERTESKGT
Test: Inhibition of MCH-induced GTPγS binding by the method of Example 21 (compound plus MCH)
Details: read-out: IC50 calculated from the binding inhibition rate (%)
reportedEndpoint: pIC50
Scale note: pIC50 = -log10(concentration in M).

State, in one line, measured pIC50 of COc1ccc(-c2ccc(C(=O)Nc3ccc4c(c3)CCC(CN(C)C)C4)cc2)cc1 (stereo not shown) [compound (1)]
7.40
